target: canine FcRn (FcRn large subunit with canine beta-2-microglobulin) (canine); test: SPR pH 6.0, SASA-Fc captured on BSA, FcRn 100-800 nM
endpoint: koff

{"columns": ["binder", "koff"],
 "data": [
  ["canine IgGB Fc (CH2-CH3) Y436H with N-terminal SASA tag (Fc fusion, part only; not given: SASA tag, not shown: another chain or arm of the molecule; small tags and cut ends) Fc: APEMLGGPSVFIFPPKPKDTLLIARTPEVTCVVVDLDPEDPEVQISWFVDGKQMQTAKTQPREEQFNGTYRVVSVLPIGHQDWLKGKQFTCKVNNKALPSPIERTISKARGQAHQPSVYVLPPSREELSKNTVSLTCLIKDFFPPDIDVEWQSNGQQEPESKYRTTPPQLDEDGSYFLYSKLSVDKSRWQRGDTFICAVMHEALHNHHTQESLSHSPGK", "0.145 s⁻¹"],
  ["canine IgGB Fc (CH2-CH3) YTE variant (L252Y/A254T/T256E) with N-terminal SASA tag (Fc fusion, part only; not given: SASA tag, not shown: another chain or arm of the molecule; small tags and cut ends) Fc: APEMLGGPSVFIFPPKPKDTLYITREPEVTCVVVDLDPEDPEVQISWFVDGKQMQTAKTQPREEQFNGTYRVVSVLPIGHQDWLKGKQFTCKVNNKALPSPIERTISKARGQAHQPSVYVLPPSREELSKNTVSLTCLIKDFFPPDIDVEWQSNGQQEPESKYRTTPPQLDEDGSYFLYSKLSVDKSRWQRGDTFICAVMHEALHNHYTQESLSHSPGK", "0.0659 s⁻¹"]
]}

Let us move to another entry and its koff.
Task item: For canine IgGB Fc (CH2-CH3) T286F with N-terminal SASA tag (Fc fusion, part only; not given: SASA tag, not shown: another chain or arm of the molecule; small tags and cut ends) Fc: APEMLGGPSVFIFPPKPKDTLLIARTPEVTCVVVDLDPEDPEVQISWFVDGKQMQFAKTQPREEQFNGTYRVVSVLPIGHQDWLKGKQFTCKVNNKALPSPIERTISKARGQAHQPSVYVLPPSREELSKNTVSLTCLIKDFFPPDIDVEWQSNGQQEPESKYRTTPPQLDEDGSYFLYSKLSVDKSRWQRGDTFICAVMHEALHNHYTQESLSHSPGK , write its koff.
Reply: 0.19 s⁻¹

From: patent US20240327497A1
